Readings of IC50 for the listed molecules
- EXPERIMENTAL TARGET: CDK9/CycT1 (Homo sapiens, UniProt P50750)
- Construct: Recombinant full-length His-tagged human CDK9 and CycT1; purchased Life Technologies PV4131; host or cells: insect cells
- Sequence (P50750 whole entry): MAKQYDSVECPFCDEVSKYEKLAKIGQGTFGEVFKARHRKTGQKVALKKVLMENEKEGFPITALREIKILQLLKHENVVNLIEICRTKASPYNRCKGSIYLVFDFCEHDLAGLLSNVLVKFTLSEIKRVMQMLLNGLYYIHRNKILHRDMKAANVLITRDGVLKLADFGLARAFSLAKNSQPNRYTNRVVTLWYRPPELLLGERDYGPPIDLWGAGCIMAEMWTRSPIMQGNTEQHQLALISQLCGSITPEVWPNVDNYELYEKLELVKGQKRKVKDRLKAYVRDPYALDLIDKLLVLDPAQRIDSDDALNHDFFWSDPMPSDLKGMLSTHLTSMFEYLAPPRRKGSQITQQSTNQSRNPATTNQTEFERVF
- Sequence (O60563 whole entry partner): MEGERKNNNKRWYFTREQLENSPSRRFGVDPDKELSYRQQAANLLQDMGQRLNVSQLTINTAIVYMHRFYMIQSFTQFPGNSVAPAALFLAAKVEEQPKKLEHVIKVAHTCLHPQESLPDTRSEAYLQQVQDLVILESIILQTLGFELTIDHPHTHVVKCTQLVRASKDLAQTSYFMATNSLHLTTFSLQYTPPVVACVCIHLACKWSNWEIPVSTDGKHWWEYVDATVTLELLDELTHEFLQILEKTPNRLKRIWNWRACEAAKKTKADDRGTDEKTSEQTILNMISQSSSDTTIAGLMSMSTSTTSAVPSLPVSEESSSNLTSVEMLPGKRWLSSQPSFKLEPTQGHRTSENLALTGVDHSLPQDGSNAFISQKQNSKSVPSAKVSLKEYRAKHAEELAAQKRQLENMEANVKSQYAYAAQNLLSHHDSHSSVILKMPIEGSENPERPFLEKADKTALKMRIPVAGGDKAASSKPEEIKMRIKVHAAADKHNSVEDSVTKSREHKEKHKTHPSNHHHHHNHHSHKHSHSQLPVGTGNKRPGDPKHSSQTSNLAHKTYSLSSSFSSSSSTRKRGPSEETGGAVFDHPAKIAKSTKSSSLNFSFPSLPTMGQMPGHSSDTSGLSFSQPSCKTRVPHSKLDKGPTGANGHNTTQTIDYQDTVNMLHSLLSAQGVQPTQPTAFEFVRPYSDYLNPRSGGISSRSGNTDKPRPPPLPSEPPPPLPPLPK
- EXPERIMENTAL DETAILS: CDK9/CycT1 high ATP kinase assay (TR-FRET, 2 mM ATP)
- Format: biochemical
- SETTINGS: 2 mM ATP (high ATP); median; read-out: CDK9/CyclinT1, 2 mM ATP (high ATP), IC50 (median)
MEASURED ATTRIBUTE: IC50

Fc1ccc(-c2cnc(CNc3nc(N4CCOCC4)nc4c(Br)cnn34)[nH]2)cc1 [Example 66] :: 4.48 µM
Fc1ccc2[nH]c(CNc3nc(N4CCOCC4)nc4c(C(F)(F)F)cnn34)nc2c1F [Example 426] :: 12.7 µM
FC(F)(F)Oc1ccccc1-c1nnc(CNc2nc(N3CCOCC3)nc3c(Br)cnn23)[nH]1 [Example 74] :: > 20 µM
CN(CC(C)(C)O)c1nc(NCc2nc3ccccc3[nH]2)n2ncc(Br)c2n1 [Example 238] :: > 18.7 µM
CC(C)c1cnn2c(NCc3ncc(-c4ccccc4)[nH]3)nc(N3CCN(C)CC3)nc12 [Example 31] :: > 20 µM
CNC1CCN(c2nc(NCc3nc4ccccc4[nH]3)n3ncc(Br)c3n2)CC1 [Example 272] :: > 20 µM
CN(C)[C@H]1CCN(c2nc(NCc3nc4ccccc4[nH]3)n3ncc(Br)c3n2)C1 [Example 177] :: > 20 µM
OC[C@H]1CCCCN1c1nc(NCc2nc3ccccc3[nH]2)n2ncc(Br)c2n1 [Example 60] :: 7.34 µM
COc1ccccc1-c1nnc(CNc2nc(N3CCN(C)CC3)nc3c(C4CC4(F)F)cnn23)[nH]1 (stereo not drawn) [Example 430] :: > 20 µM
Brc1cnn2c(NCc3nc4ccccc4[nH]3)nc(NCCN3CCCC3)nc12 [Example 235] :: > 20 µM
CC(C)c1cnn2c(NCc3nc4ccccc4[nH]3)nc(N3CCOCC3)nc12 [Example 1] :: > 20 µM
CCc1cnn2c(NCc3nc4ccccc4[nH]3)nc(N3CCOCC3)nc12 [Example 431] :: > 20 µM
CCc1cnn2c(NCc3nc4c(F)c(F)ccc4[nH]3)nc(N3CCOCC3)nc12 [Example 432] :: 15.7 µM
Clc1cccc(-c2cnn3c(NCc4nc5ccccc5[nH]4)nc(N4CCOCC4)nc23)c1 [Example 107] :: > 20 µM
CC(C)CNc1nc(NCc2nc3ccccc3[nH]2)n2ncc(Br)c2n1 [Example 285] :: > 20 µM
N[C@H]1CN(c2nc(NCc3nc4ccccc4[nH]3)n3ncc(Br)c3n2)CC12CC2 [Example 259] :: 7.37 µM
CC[C@H](CO)Nc1nc(NCc2nc3ccccc3[nH]2)n2ncc(Br)c2n1 [Example 368] :: > 20 µM
Cc1ccc2[nH]c(CNc3nc(N4C[C@@H](C)N[C@@H](C)C4)nc4c(C5CC5)cnn34)nc2c1 [Example 194] :: > 20 µM
Brc1cnn2c(NCc3nc4ccccc4[nH]3)nc(N3CCN(C4CC4)CC3)nc12 [Example 138] :: > 20 µM
CN1CCN(c2nc(NCc3nc4c(F)c(F)ccc4[nH]3)n3ncc(C4CC4)c3n2)CC1 [Example 159] :: > 20 µM
C[C@@H]1CN(c2nc(NCc3nc4c(F)cccc4[nH]3)n3ncc(Br)c3n2)C[C@H](C)O1 [Example 109] :: 1.79 µM
CN1CCN(c2nc(NCc3nc4cc(Cl)c(Cl)cc4[nH]3)n3ncc(C4CC4)c3n2)CC1 [Example 305] :: > 20 µM
CC1(C)CN(c2nc(NCc3nc4ccccc4[nH]3)n3ncc(Br)c3n2)CCN1 [Example 216] :: > 20 µM
CC(C)COc1nc(NCc2nc3ccccc3[nH]2)n2ncc(Br)c2n1 [Example 409] :: > 20 µM
Fc1ccc2[nH]c(CNc3nc(N4CCOCC4)nc4c(CC(F)(F)F)cnn34)nc2c1 [Example 308] :: > 20 µM
OC[C@@H]1CCCCN1c1nc(NCc2nc3c(F)cccc3[nH]2)n2ncc(C3CC3)c2n1 [Example 189] :: 2.2 µM
CN(c1nc(NCc2nc3ccccc3[nH]2)n2ncc(Br)c2n1)[C@H]1C[C@@H](O)C1 [Example 364] :: > 20 µM
Fc1ccc2[nH]c(CNc3nc(N4CCOCC4)nc4c(-c5cnn(C(F)F)c5)cnn34)nc2c1F [Example 422] :: > 20 µM
CO[C@H]1CCN(c2nc(NCc3nc4ccccc4[nH]3)n3ncc(Br)c3n2)C1 [Example 222] :: > 20 µM
Fc1ccc2[nH]c(CNc3nc(N4CCOCC4)nc4c(C5CC5(F)F)cnn34)nc2c1 (single isomer, unassigned) [Example 314] :: > 20 µM
FC(F)(F)c1cnn2c(NCc3nc4cc(Cl)ccc4[nH]3)nc(N3CCOCC3)nc12 [Example 275] :: > 20 µM
FC(F)(F)Oc1cccc2[nH]c(CNc3nc(N4CCOCC4)nc4c(Br)cnn34)nc12 [Example 375] :: 14.5 µM
Fc1cc2nc(CNc3nc(N4C[C@H]5CC[C@@H](C4)N5)nc4c(C5CC5)cnn34)[nH]c2cc1Cl [Example 328] :: 15 µM
